target: Solute carrier organic anion transporter family member 2B1 (Homo sapiens); assay: Inhibition of human liver OATP2B1 expressed in HEK293 Flp-In cells assessed as reduction in [3H]E3S uptake at 20 uM incubated for 5 mins by scintillation counting; details: hek293, 5 min
Sequence (O94956 whole entry): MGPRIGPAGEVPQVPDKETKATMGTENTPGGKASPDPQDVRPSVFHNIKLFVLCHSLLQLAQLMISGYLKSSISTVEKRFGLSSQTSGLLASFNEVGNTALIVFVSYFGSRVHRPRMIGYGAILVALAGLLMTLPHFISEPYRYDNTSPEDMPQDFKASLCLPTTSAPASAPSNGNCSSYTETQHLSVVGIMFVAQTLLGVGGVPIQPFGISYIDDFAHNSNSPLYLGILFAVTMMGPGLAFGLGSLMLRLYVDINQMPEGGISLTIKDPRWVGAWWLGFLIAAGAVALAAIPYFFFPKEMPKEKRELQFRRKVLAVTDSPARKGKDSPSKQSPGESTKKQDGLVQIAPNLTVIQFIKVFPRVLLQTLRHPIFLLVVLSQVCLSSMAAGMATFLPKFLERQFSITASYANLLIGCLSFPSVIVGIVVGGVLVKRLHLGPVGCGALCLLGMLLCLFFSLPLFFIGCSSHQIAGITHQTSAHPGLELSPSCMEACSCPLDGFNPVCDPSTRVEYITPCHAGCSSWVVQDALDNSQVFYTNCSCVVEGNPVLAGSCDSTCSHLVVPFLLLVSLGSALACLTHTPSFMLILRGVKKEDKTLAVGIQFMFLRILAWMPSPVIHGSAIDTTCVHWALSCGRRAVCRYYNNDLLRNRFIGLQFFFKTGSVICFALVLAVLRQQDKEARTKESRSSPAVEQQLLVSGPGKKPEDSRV
Recorded measurements of INH, one per entry
readout: INH (%)

[
  {
    "compound": "NC12CC3CC(CC(C3)C1)C2 [AMANTADINE]",
    "number": 17
  },
  {
    "compound": "CC[C@@]1(O)C(=O)OCc2c1cc1n(c2=O)Cc2cc3c(CN(C)C)c(O)ccc3nc2-1 [TOPOTECAN]",
    "number": -39.2
  },
  {
    "compound": "C[C@@H]1C[C@H]2[C@@H]3CCC4=CC(=O)C=C[C@]4(C)[C@@]3(F)[C@@H](O)C[C@]2(C)[C@@]1(O)C(=O)CO [DEXAMETHASONE]",
    "number": -12.5
  },
  {
    "compound": "NC(=O)N1c2ccccc2C=Cc2ccccc21 [CARBAMAZEPINE]",
    "number": 17.3
  },
  {
    "compound": "CC(NC(C)(C)C)C(=O)c1cccc(Cl)c1 (stereo not given) [BUPROPION]",
    "number": 17
  }
]

---

target: Solute carrier organic anion transporter family member 2B1 (Homo sapiens); test: Inhibition of human liver OATP2B1 expressed in HEK293 Flp-In cells assessed as reduction in [3H]E3S uptake at 20 uM incubated for 5 mins by scintillation counting; conditions: hek293, 5 min
readout: INH (%)

[
  {
    "molecule": "COc1cccc2c1C(=O)c1c(O)c3c(c(O)c1C2=O)C[C@@](O)(C(=O)CO)C[C@@H]3O[C@H]1C[C@H](N)[C@H](O)[C@H](C)O1",
    "readout": "INH",
    "number": 49.9
  },
  {
    "molecule": "CC(C)NCC(O)c1ccc(NS(C)(=O)=O)cc1 (stereo not given)",
    "readout": "INH",
    "number": 19
  },
  {
    "molecule": "Cc1cccc(C)c1NC(=O)CC12CCCN1CCC2 [PILSICAINIDE]",
    "readout": "INH",
    "number": 10.8
  },
  {
    "molecule": "CCC(C)(C)C(=O)O[C@H]1C[C@@H](C)C=C2C=C[C@H](C)[C@H](CC[C@@H]3C[C@@H](O)CC(=O)O3)[C@H]21",
    "readout": "INH",
    "number": 47.4
  },
  {
    "molecule": "CC#C[C@]1(O)CC[C@H]2[C@@H]3CCC4=CC(=O)CCC4=C3[C@@H](c3ccc(N(C)C)cc3)C[C@@]21C",
    "readout": "INH",
    "number": 70.7
  },
  {
    "molecule": "CCCCNC(=O)NS(=O)(=O)c1ccc(C)cc1 [TOLBUTAMIDE]",
    "readout": "INH",
    "number": 15.5
  },
  {
    "molecule": "C[N+](C)(C)CC(O)CC(=O)[O-] (stereo not given)",
    "readout": "INH",
    "number": 15.5
  },
  {
    "molecule": "CNCC[C@@H](Oc1ccccc1C)c1ccccc1",
    "readout": "INH",
    "number": 16.3
  },
  {
    "molecule": "CC(C)(C)c1ccc(C(O)CCCN2CCC(C(O)(c3ccccc3)c3ccccc3)CC2)cc1 (stereo not given)",
    "readout": "INH",
    "number": 3.7
  },
  {
    "molecule": "O=C1[C@H](CC[C@H](O)c2ccc(F)cc2)[C@@H](c2ccc(O)cc2)N1c1ccc(F)cc1",
    "readout": "INH",
    "number": -8.9
  },
  {
    "molecule": "COc1ccnc(C[S+]([O-])c2nc3ccc(OC(F)F)cc3[nH]2)c1OC (stereo not given)",
    "readout": "INH",
    "number": 17.3
  },
  {
    "molecule": "CN(C)CCC=C1c2ccccc2CCc2ccccc21",
    "readout": "INH",
    "number": -8.9
  },
  {
    "molecule": "Nc1ccc(C(=O)NCC(=O)O)cc1",
    "readout": "INH",
    "number": 27.4
  },
  {
    "molecule": "CC(=O)S[C@@H]1CC2=CC(=O)CC[C@]2(C)[C@H]2CC[C@@]3(C)[C@@H](CC[C@@]34CCC(=O)O4)[C@H]12",
    "readout": "INH",
    "number": -82
  },
  {
    "molecule": "C[C@H](CS)C(=O)N1CCC[C@H]1C(=O)O",
    "readout": "INH",
    "number": 39.1
  },
  {
    "molecule": "Cc1nnc2n1-c1ccc(Cl)cc1C(c1ccccc1Cl)=NC2",
    "readout": "INH",
    "number": -20.5
  },
  {
    "molecule": "CCc1c2c(nc3ccc(OC(=O)N4CCC(N5CCCCC5)CC4)cc13)-c1cc3c(c(=O)n1C2)COC(=O)[C@]3(O)CC",
    "readout": "INH",
    "number": 16.3
  },
  {
    "molecule": "CCC[C@@]1(CCc2ccccc2)CC(O)=C([C@H](CC)c2cccc(NS(=O)(=O)c3ccc(C(F)(F)F)cn3)c2)C(=O)O1",
    "readout": "INH",
    "number": 99
  },
  {
    "molecule": "C[C@H](CCC(=O)NCC(=O)O)[C@H]1CC[C@H]2[C@@H]3[C@H](O)C[C@@H]4C[C@H](O)CC[C@]4(C)[C@H]3CC[C@]12C [GLYCOCHENODEOXYCHOLATE]",
    "readout": "INH",
    "number": 65.3
  },
  {
    "molecule": "CC(C)N(CCC(C(N)=O)(c1ccccc1)c1ccccn1)C(C)C (stereo not given) [DISOPYRAMIDE]",
    "readout": "INH",
    "number": 18.5
  },
  {
    "molecule": "CN(C)CCCN1c2ccccc2CCc2ccccc21",
    "readout": "INH",
    "number": 16.9
  },
  {
    "molecule": "CN(C)[C@@H]1C(O)=C(C(N)=O)C(=O)[C@@]2(O)C(O)=C3C(=O)c4c(O)cccc4[C@@](C)(O)[C@H]3C[C@@H]12",
    "readout": "INH",
    "number": 51.1
  },
  {
    "molecule": "CN[C@@H]1C[C@H](N)[C@@H](O)[C@H](O[C@H]2O[C@H](CO)[C@H](O)[C@@H]3O[C@@]4(O[C@@H]23)O[C@H]([C@H](N)CO)[C@H](O)[C@H](O)[C@H]4O)[C@H]1O",
    "readout": "INH",
    "number": 31.5
  },
  {
    "molecule": "C[C@H](CCC(=O)O)[C@H]1CC[C@H]2[C@@H]3[C@H](O)C[C@@H]4C[C@H](O)CC[C@]4(C)[C@H]3C[C@H](O)[C@]12C",
    "readout": "INH",
    "number": 20.2
  },
  {
    "molecule": "CCOc1cc(CC(=O)N[C@@H](CC(C)C)c2ccccc2N2CCCCC2)ccc1C(=O)O [REPAGLINIDE]",
    "readout": "INH",
    "number": 42.2
  },
  {
    "molecule": "COC(=O)[C@H]1[C@H]2C[C@@H]3c4[nH]c5cc(OC)ccc5c4CCN3C[C@H]2C[C@@H](OC(=O)c2cc(OC)c(OC)c(OC)c2)[C@@H]1OC",
    "readout": "INH",
    "number": 72.3
  },
  {
    "molecule": "CC(C)C[C@H](NC(=O)[C@@H](O)[C@H](N)Cc1ccccc1)C(=O)O",
    "readout": "INH",
    "number": 20.7
  },
  {
    "molecule": "CC[C@]1(O)C[C@H]2CN(CCc3c([nH]c4ccccc34)[C@@](C(=O)OC)(c3cc4c(cc3OC)N(C=O)[C@H]3[C@@](O)(C(=O)OC)[C@H](OC(C)=O)[C@]5(CC)C=CCN6CC[C@]43[C@@H]65)C2)C1",
    "readout": "INH",
    "number": 13
  },
  {
    "molecule": "CC(NCCC(c1ccccc1)c1ccccc1)c1ccccc1 (stereo not given)",
    "readout": "INH",
    "number": -118.7
  },
  {
    "molecule": "CCOc1nc2cccc(C(=O)O)c2n1Cc1ccc(-c2ccccc2-c2nnn[nH]2)cc1",
    "readout": "INH",
    "number": 28.4
  }
]
